Entries and their IC50
Target: human ROCKα/ROCKII mix (Homo sapiens, UniProt O75116)
Construct: purchased Upstate Biotechnology 14-451
Sequence (O75116 11-552 limits assumed): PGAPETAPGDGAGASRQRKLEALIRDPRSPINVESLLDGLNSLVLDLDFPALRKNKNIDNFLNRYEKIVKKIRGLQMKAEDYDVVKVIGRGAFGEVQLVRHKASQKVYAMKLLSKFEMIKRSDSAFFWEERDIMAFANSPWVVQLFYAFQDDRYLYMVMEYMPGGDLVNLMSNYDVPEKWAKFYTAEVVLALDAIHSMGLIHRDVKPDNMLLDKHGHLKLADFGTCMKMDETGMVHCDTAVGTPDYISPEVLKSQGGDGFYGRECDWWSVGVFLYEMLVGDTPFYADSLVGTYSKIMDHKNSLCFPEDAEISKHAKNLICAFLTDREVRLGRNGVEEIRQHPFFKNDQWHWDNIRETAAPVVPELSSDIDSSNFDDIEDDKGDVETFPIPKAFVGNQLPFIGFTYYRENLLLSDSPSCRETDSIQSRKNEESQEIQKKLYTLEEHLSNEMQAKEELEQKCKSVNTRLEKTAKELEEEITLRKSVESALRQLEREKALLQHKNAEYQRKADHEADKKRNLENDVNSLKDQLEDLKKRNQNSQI
Assay: Biochemical assay for ROCK (fluorescence polarization, ROCK IMAP Kit)
Experimental: The compounds were tested for inhibition of human ROCKα/ROCKII mix. The inhibition assays were performed with a fluorescence polarization (FP) assay using the commercially available ROCK IMAP Kit from Molecular Devices (Product ID. No. R8093), essentially in accordance with the protocol supplied by the manufacturer. […] The enzyme mix ROCKα/ROCKII was obtained from Upstate Biotechnology (Product ID No 14-451). […]

[[record]]
molecule = "NC(c1ccc(C(=O)Nc2ccncc2)cc1)C1CCCN1C(=O)Cc1ccc(O)c([N+](=O)[O-])c1 (stereo not shown) [Compound 540]"
subject_of_test = "human ROCKα/ROCKII mix (Homo sapiens, UniProt O75116)"
observed_value = "0.5 to 5 µM"

[[record]]
molecule = "CN(CC(N)c1ccc(C(=O)Nc2ccncc2)cc1)C(=O)C1(c2ccc(F)cc2)CCCC1 (stereo not shown) [Compound 475]"
subject_of_test = "human ROCKα/ROCKII mix (Homo sapiens, UniProt O75116)"
observed_value = "0.5 to 5 µM"

[[record]]
molecule = "CN(CC(N)c1ccc(C(=O)Nc2ccncc2)cc1)C(=O)C1(c2ccc(F)c(Cl)c2)CC1 (stereo not shown) [Compound 506]"
subject_of_test = "human ROCKα/ROCKII mix (Homo sapiens, UniProt O75116)"
observed_value = "0.5 to 5 µM"


Please indicate IC50 recorded for CC(C)(C(=S)NCC(N)c1ccc(C(=O)Nc2ccncc2)cc1)c1ccc(F)cc1 (stereo not shown) [Compound 419]
0.05 to 0.5 µM

Quick one: give measured IC50 for CC(C)(C)NC(=O)NCC(N)c1ccc(C(=O)Nc2ccncc2)cc1 (stereo not shown) [Compound 3]
0.5 to 5 µM

Using known records, supply IC50 for COc1ccc(CNC(=O)NCC(N)c2ccc(C(=O)Nc3ccncc3)cc2)cc1 (stereo not shown) [Compound 10]
0.05 to 0.5 µM

Fill in reported IC50 for this entry: NC(c1ccc(C(=O)Nc2ccncc2)cc1)C1CCCN1C(=O)Cc1cncc(Br)c1 (stereo not shown) [Compound 543]
0.5 to 5 µM

Supply recorded IC50 for NC(c1ccc(C(=O)Nc2ccncc2)cc1)C1CCCN1C(=O)C1CCc2ccccc21 (stereo not shown) [Compound 608] here.
0.5 to 5 µM

Recall and state the measured IC50 for NC(CNC(=O)NC1CCCC1)c1ccc(C(=O)Nc2ccncc2)cc1 (stereo not shown) [Compound 4] .
0.5 to 5 µM

Give recorded IC50. NC(CNC(=O)Nc1ccc(-c2ccccc2)cc1)c1ccc(C(=O)Nc2ccncc2)cc1 (stereo not shown) [Compound 22]
0.5 to 5 µM

State its IC50: COc1ccc(CC(=O)N(C)CC(N)c2ccc(C(=O)Nc3ccncc3)cc2)c(OC)c1 (stereo not shown) [Compound 430]
0.05 to 0.5 µM

Write down IC50 measured for item NC(CNC(=S)Nc1ccc(C(F)(F)F)cc1)c1ccc(C(=O)Nc2ccncc2)cc1 (stereo not shown) [Compound 16]
0.5 to 5 µM

Give reported IC50 value for NC(CNC(=O)NCc1ccccc1)c1ccc(C(=O)Nc2ccncc2)cc1 (stereo not shown) [Compound 7]
0.05 to 0.5 µM

###

Molecular target: human ROCKα/ROCKII mix (Homo sapiens, UniProt O75116)
Construct: purchased Upstate Biotechnology 14-451
Assay: Biochemical assay for ROCK (fluorescence polarization, ROCK IMAP Kit)
Measured Parameter: IC50

[[record]]
compound = "N[C@H](CC(=O)N[C@@H]1COc2ccccc21)c1ccc(C(=O)Nc2ccncc2)cc1"
observed_value = "< 0.05 µM"


Assign IC50 to the following record: Cc1cc(Cl)ccc1NC(=O)NCC(N)c1ccc(C(=O)Nc2ccncc2)cc1 (stereo not shown)
0.05 to 0.5 µM

Please list IC50 recorded for the compound NC(c1ccc(C(=O)Nc2ccncc2)cc1)C1CCCN1C(=O)Cc1ccccc1 (stereo not shown)
0.05 to 0.5 µM

Report IC50 for CN(CC(N)c1ccc(C(=O)Nc2ccncc2)cc1)C(=O)Cc1cc(F)ccc1F (stereo not shown)
0.5 to 5 µM

Retrieve IC50 measured for N[C@@H](CC(=O)NC1COc2ccccc21)c1ccc(C(=O)Nc2ccncc2)cc1 (mixture of isomers) and print it.
0.05 to 0.5 µM

Entry NC(c1ccc(C(=O)Nc2ccncc2)cc1)C1CCCN1C(=O)C(c1ccccc1)C1CCCC1 (stereo not shown) needs its IC50 filled in; supply it.
0.5 to 5 µM

Complete the entry with IC50 for NC(c1ccc(C(=O)Nc2ccncc2)cc1)C1CCCN1C(=O)Cc1cccc2ccccc12 (stereo not shown)
0.5 to 5 µM

Recall and state the measured IC50 for NC(c1ccc(C(=O)Nc2ccncc2)cc1)C1CCCN1C(=O)Cc1c(F)cccc1Cl (stereo not shown) .
0.5 to 5 µM

Answer with the recorded IC50 for the compound listed here: NC(CNC(=O)Nc1cccc2ccccc12)c1ccc(C(=O)Nc2ccncc2)cc1 (stereo not shown)
0.05 to 0.5 µM

Hello, please tell me recorded IC50 for this one: CN(CC(N)c1ccc(C(=O)Nc2ccncc2)cc1)C(=O)C1(c2ccc(Cl)cc2Cl)CC1 (stereo not shown)
0.5 to 5 µM

###

Recorded IC50 values for a group of molecules are listed next.
Target: human ROCKα/ROCKII mix (Homo sapiens)
Construct: purchased Upstate Biotechnology 14-451
Experiment: Biochemical assay for ROCK (fluorescence polarization, ROCK IMAP Kit)

[[record]]
molecule = "N[C@H](CNC(=O)C1(c2ccc(Cl)cc2)CC1)c1ccc(C(=O)Nc2ccncc2)cc1"
subject_of_test = "human ROCKα/ROCKII mix (Homo sapiens)"
measured_parameter = "IC50"
observed_value = "0.05 to 0.5 µM"

[[record]]
molecule = "CN(CC(N)c1ccc(C(=O)Nc2ccncc2)cc1)C(=O)Cc1ccc(Cl)cc1F (stereo not shown)"
subject_of_test = "human ROCKα/ROCKII mix (Homo sapiens)"
measured_parameter = "IC50"
observed_value = "0.5 to 5 µM"

[[record]]
molecule = "N[C@@H](CNC(=O)C1(c2ccc(Cl)cc2)CC1)c1ccc(C(=O)Nc2ccncc2)cc1"
subject_of_test = "human ROCKα/ROCKII mix (Homo sapiens)"
measured_parameter = "IC50"
observed_value = "0.5 to 5 µM"


Let's switch to this molecule now.
# lookup: human ROCKα/ROCKII mix (Homo sapiens) IC50, key = NC(CNC(=S)Nc1ccccc1)c1ccc(C(=O)Nc2ccncc2)cc1 (stereo not shown)
0.05 to 0.5 µM

###

Target: PKC epsilon (Homo sapiens)
Construct: purchased Invitrogen P2282
Sequence (Q02156 1-737): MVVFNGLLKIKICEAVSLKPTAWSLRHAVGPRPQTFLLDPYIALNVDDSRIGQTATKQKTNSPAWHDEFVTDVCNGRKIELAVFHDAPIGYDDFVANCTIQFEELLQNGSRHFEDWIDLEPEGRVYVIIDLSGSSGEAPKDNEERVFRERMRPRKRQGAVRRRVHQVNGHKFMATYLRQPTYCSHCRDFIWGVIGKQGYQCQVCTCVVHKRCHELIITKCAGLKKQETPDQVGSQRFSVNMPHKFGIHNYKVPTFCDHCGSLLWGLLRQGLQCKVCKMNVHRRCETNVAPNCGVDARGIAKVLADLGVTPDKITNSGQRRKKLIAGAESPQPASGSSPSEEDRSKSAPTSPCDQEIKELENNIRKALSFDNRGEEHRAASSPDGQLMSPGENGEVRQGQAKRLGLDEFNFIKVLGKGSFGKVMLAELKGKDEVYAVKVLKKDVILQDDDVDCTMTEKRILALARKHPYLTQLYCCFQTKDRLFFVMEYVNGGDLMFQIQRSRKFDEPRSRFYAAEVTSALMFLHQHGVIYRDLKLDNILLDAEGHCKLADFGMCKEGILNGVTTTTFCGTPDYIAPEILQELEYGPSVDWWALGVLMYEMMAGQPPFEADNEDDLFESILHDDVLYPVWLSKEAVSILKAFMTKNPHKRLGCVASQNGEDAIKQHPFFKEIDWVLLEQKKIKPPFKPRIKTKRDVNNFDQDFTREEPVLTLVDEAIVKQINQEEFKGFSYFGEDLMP
Assay: Biochemical assay for PKC epsilon (fluorescence polarization, Protein Kinase C Assay Kit, Red)
Conditions: Table 2, compounds of Formula XIII; read-out: IC50 μM PKCε
Measured Parameter: IC50

Worked cases, answers included:
[[record]]
compound = "Cc1ccsc1C=NOCC(=O)NCC(N)c1ccc(C(=O)Nc2ccncc2)cc1 (stereo not shown)"
subject_of_test = "PKC epsilon (Homo sapiens)"
measured_parameter = "IC50"
observed_value = "5 to 50 µM"

[[record]]
compound = "Cc1cccc(CC(=O)NCC(N)c2ccc(C(=O)Nc3ccncc3)cc2)c1 (stereo not shown)"
subject_of_test = "PKC epsilon (Homo sapiens)"
measured_parameter = "IC50"
observed_value = "0.5 to 5 µM"

[[record]]
compound = "NC(CNC(=O)c1csc(Nc2ccc(F)cc2)n1)c1ccc(C(=O)Nc2ccncc2)cc1 (stereo not shown)"
subject_of_test = "PKC epsilon (Homo sapiens)"
measured_parameter = "IC50"
observed_value = "0.5 to 5 µM"

[[record]]
compound = "NC(CNC(=O)Cc1csc(Nc2ccccc2)n1)c1ccc(C(=O)Nc2ccncc2)cc1 (stereo not shown)"
subject_of_test = "PKC epsilon (Homo sapiens)"
measured_parameter = "IC50"
observed_value = "0.5 to 5 µM"

[[record]]
compound = "CC(C)(C(=O)NCC(N)c1ccc(C(=O)Nc2ccncc2)cc1)c1ccc(Cl)cc1F (stereo not shown)"
subject_of_test = "PKC epsilon (Homo sapiens)"
measured_parameter = "IC50"
observed_value = "< 0.05 µM"


Look up IC50 of NC(CNC(=O)CCC1CCCCC1)c1ccc(C(=O)Nc2ccncc2)cc1 (stereo not shown) and report it.
0.5 to 5 µM

For the compound Cc1ccc(C(=O)NCC(N)c2ccc(C(=O)Nc3ccncc3)cc2)s1 (stereo not shown) , give its reported IC50.
0.5 to 5 µM

Please indicate IC50 recorded for Cc1ccc(C(=O)NCC(N)c2ccc(C(=O)Nc3ccncc3)cc2)cc1 (stereo not shown)
5 to 50 µM

Provide one value: measured IC50 of NC(CNC(=O)CCc1ccc(F)cc1)c1ccc(C(=O)Nc2ccncc2)cc1 (stereo not shown)
0.05 to 0.5 µM

Determine from records and report IC50 for Cn1cccc1C(=O)NCC(N)c1ccc(C(=O)Nc2ccncc2)cc1 (stereo not shown)
0.5 to 5 µM

Supply measured IC50 of NC(CNC(=O)Cc1ccc(Cl)c(Cl)c1)c1ccc(C(=O)Nc2ccncc2)cc1 (stereo not shown) in your reply.
0.05 to 0.5 µM
